Target: T1, rat calcitonin (a) receptor (rat, UniProt P32214 25-516)
T1 sequence (looked up): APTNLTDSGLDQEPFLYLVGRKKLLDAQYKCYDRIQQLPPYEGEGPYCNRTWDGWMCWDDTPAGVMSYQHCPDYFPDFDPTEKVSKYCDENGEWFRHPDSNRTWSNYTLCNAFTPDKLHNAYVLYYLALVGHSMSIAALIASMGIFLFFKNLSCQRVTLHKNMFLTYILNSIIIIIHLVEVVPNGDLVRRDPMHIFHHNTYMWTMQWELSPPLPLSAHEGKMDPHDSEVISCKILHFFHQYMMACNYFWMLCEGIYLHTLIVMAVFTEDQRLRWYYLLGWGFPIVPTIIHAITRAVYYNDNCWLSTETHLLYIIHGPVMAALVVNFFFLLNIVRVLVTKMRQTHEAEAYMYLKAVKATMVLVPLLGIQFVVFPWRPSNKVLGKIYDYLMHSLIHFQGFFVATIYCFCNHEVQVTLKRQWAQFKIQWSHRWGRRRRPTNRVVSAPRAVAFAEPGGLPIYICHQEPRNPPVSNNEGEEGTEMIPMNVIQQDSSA
Experiment: cell-based or functional assay
Starred links: 1 amine or outer side, 2 acyl side, 3 side chain; linkers in the order of their positions; H or OH if unused. Positions of bridges follow the written chain, without caps; N, C: chain ends. Non-standard residues stand in square brackets, D forms with d. *: point of attachment. C20 diacid = O=C(O)CCCCCCCCCCCCCCCCCCC(=O)*; 19‑carboxyheptadecanoyl = not defined here; C18 diacid = O=C(O)CCCCCCCCCCCCCCCCC(=O)*; γGlu = O=C(O)[C@H](CCC(=O)[*:2])N[*:1]; AEEA = NCCOCCOCC(=O)O
experimental.endpoint: CTa receptor rat EC50

Quick note, CTa receptor rat EC50 for {C18 diacid-γGlu}-KCNTATCATQRLAEFLHHSSNNFGPILPPTNVGSHTY-NH2 (disulfide 2-7; not fully specified; printed as N-alpha-[(S)-4-Carboxy-4-(17-carboxyheptadecanoylamino)butyryl]-[Glu14,His17,His35]-pramlintide) [N-alpha-[(S)-4-Carboxy-4-(17-carboxyheptadecanoylamino)butyryl]-[Glu14,His17,His35]-pramlintide] landed at 0.148 nM

Quick note, CTa receptor rat EC50 for {C20 diacid-γGlu}-EKCNTATCATQRLAEFLHHSSNNFGPILPPTNVGSHTY-NH2 (disulfide 3-8; not fully specified; printed as N-alpha-[(S)-4-Carboxy-4-(19-carboxynonadecanoylamino)butyryl]-Glu-[Glu14,His17,His35]-pramlintide) [N-alpha-[(S)-4-Carboxy-4-(19-carboxynonadecanoylamino)butyryl]-Glu-[Glu14,His17,His35]-pramlintide] landed at 4.97 nM

Quick note, CTa receptor rat EC50 for {C18 diacid-γGlu}-HCNTATCATQRLAEFLHHSSNNFGPILPPTNVGSNTY-NH2 (disulfide 2-7; not fully specified; printed as N-alpha-[(S)-4-Carboxy-4-(17-carboxyheptadecanoylamino)butyryl]-[His1,Glu14,His17]-pramlintide) [N-alpha-[(S)-4-Carboxy-4-(17-carboxyheptadecanoylamino)butyryl]-[His1,Glu14,His17]-pramlintide] landed at 0.375 nM

Quick note, CTa receptor rat EC50 for {C20 diacid-γGlu}-HCNTATCATQRLAEFLHHSSNNFGPILPPTNVGSHTY-NH2 (disulfide 2-7; not fully specified; printed as N-alpha-[(S)-4-Carboxy-4-(19-carboxynonadecanoylamino)butyryl]-[His1,Glu14,His17,His35]-pramlintide) [N-alpha-[(S)-4-Carboxy-4-(19-carboxynonadecanoylamino)butyryl]-[His1,Glu14,His17,His35]-pramlintide] landed at 1.04 nM

Quick note, CTa receptor rat EC50 for {19‑carboxyheptadecanoyl-γGlu-AEEA-AEEA}-[dR][dR]KCNTATCATQRLAEFLHRSSANFGPILPPTNVGSSTY-NH2 (disulfide 4-9; reading uncertain; also: printed as N-alpha-[2-(2-{2-[2-(2-{2-[(S)-4-Carboxy-4-(19-carboxyheptadecanoylamino)butyrylamino]ethoxy}ethoxy)acetylamino]ethoxy}ethoxy)acetyl]-D-Arg-D-Arg-[Glu14,His17,Arg18,Ala21,Ser35]-pramlintide) landed at 4.48 nM

Quick note, CTa receptor rat EC50 for {C20 diacid-γGlu}-HCNTATCATQRLAEFLHHSSNNFGPILPPTNVGSNTP-NH2 (disulfide 2-7; not fully specified; printed as N-alpha-[(S)-4-Carboxy-4-(19-carboxynonadecanoylamino)butyryl]-[His1,Glu14,His17,Pro37]-pramlintide) [N-alpha-[(S)-4-Carboxy-4-(19-carboxynonadecanoylamino)butyryl]-[His1,Glu14,His17,Pro37]-pramlintide] landed at 0.109 nM
